- Target desc: Thromboxane A2 Receptor (Oryctolagus cuniculus)
- Procedure summary: Receptor binding experiment: Thromboxane A2 Receptor Binding Test ([3H]SQ29548, washed platelets)
- Design: species or system New Zealand White rabbits
- Condition summary: rabbit washed platelets; [3H]SQ29548 3 nM; 60 minutes at 25° C.; read-out: Binding Inhibitory Action IC50 (converted)
Observed property: IC50 (nM)
Quick note: give the figure in nM, leave out the unit.

Before answering, review these 3 worked examples.
- Compound: "CCCCS(=O)(=O)N[C@@H]1[C@H]2c3cccc(OCC(=O)O)c3O[C@H]2C[C@H]1O (racemic)"
  Test result: 1220
- Compound: "CO[C@@H]1C[C@@H]2Oc3c(OCC(=O)O)cccc3[C@@H]2[C@H]1NS(=O)(=O)c1ccccc1 (racemic)"
  Test result: 57.2
- Compound: "O=C(O)COc1cccc2c1O[C@H]1C[C@@H](O)[C@H](NS(=O)(=O)c3ccc([N+](=O)[O-])cc3)[C@@H]21 (racemic)"
  Test result: 910

Give the observed IC50 of O=C(O)COc1cccc2c1O[C@H]1C[C@@H](O)[C@H](NS(=O)(=O)c3ccc4ccccc4c3)[C@@H]21 (racemic) for Thromboxane A2 Receptor (Oryctolagus cuniculus).
2.09

Tell me its IC50 on Thromboxane A2 Receptor (Oryctolagus cuniculus): O=C(O)CCCc1cccc2c1O[C@H]1C[C@@H](O)[C@H](NS(=O)(=O)c3ccccc3)[C@@H]21 (racemic)
4790

Give IC50; test system Thromboxane A2 Receptor (Oryctolagus cuniculus); compound O=C(O)COc1cccc2c1O[C@H]1CC[C@H](NS(=O)(=O)c3ccccc3)[C@@H]21 (racemic)
8.47

Retrieve IC50 on Thromboxane A2 Receptor (Oryctolagus cuniculus); query O=C(O)COc1cccc2c1O[C@H]1C[C@@H](O)[C@H](NS(=O)(=O)c3ccc(Cl)cc3)[C@@H]21 (racemic)
3.18

----------
- Target desc: Thromboxane A2 Receptor (Oryctolagus cuniculus, UniProt Q6WQI8)
- Sequence (Q6WQI8 1-233): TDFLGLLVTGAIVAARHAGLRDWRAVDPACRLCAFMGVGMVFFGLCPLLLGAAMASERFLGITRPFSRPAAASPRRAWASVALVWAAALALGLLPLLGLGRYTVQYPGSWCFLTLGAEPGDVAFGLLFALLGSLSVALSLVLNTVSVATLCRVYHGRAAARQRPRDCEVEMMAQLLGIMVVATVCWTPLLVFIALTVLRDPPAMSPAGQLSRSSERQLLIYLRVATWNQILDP
- Procedure summary: Receptor binding experiment: Thromboxane A2 Receptor Binding Test ([3H]SQ29548, washed platelets)
- Design: species or system New Zealand White rabbits
- Condition summary: rabbit washed platelets; [3H]SQ29548 3 nM; 60 minutes at 25° C.; read-out: Binding Inhibitory Action IC50 (converted)
Observed property: IC50 (nM)
Lab book: enter the figure in nM, no units written.

- Compound: "O=C(O)/C=C/c1cccc2c1O[C@H]1C[C@@H](O)[C@H](NS(=O)(=O)c3ccccc3)[C@@H]21 (relative stereo) [(88)]"
  Observed property: "IC50"
  Test result: 648
- Compound: "O=C(O)COc1ccc(CCNS(=O)(=O)c2ccccc2)cc1 [Control, reference compound]"
  Observed property: "IC50"
  Test result: 4170
- Compound: "O=C(O)CCc1cccc2c1O[C@H]1C[C@@H](O)[C@H](NS(=O)(=O)c3ccccc3)[C@@H]21 (racemic) [(43)]"
  Observed property: "IC50"
  Test result: 322
- Compound: "COc1ccc(S(=O)(=O)N[C@@H]2[C@H]3c4cccc(OCC(=O)O)c4O[C@H]3C[C@H]2O)cc1 (racemic) [(51)]"
  Observed property: "IC50"
  Test result: 27.6
- Compound: "O=C(O)COc1cccc2c1O[C@H]1C[C@@H](O)[C@H](NS(=O)(=O)c3cccc(Cl)c3)[C@@H]21 (racemic) [(57)]"
  Observed property: "IC50"
  Test result: 22.7

Quick one: give measured IC50 for O=C(O)Cc1cccc2c1O[C@H]1C[C@@H](O)[C@H](NS(=O)(=O)c3ccccc3)[C@@H]21 (racemic) [(41)]
2080

Indicate the recorded IC50 value for this compound: O=C(O)COc1cccc2c1O[C@H]1C[C@@H](O)[C@H](NS(=O)(=O)c3ccccc3Cl)[C@@H]21 (relative stereo) [(59)]
22.7

Return IC50 for the following compound: O=C(O)COc1cccc2c1O[C@H]1C[C@@H](O)[C@H](NS(=O)(=O)CCc3ccccc3)[C@@H]21 (racemic) [(76)]
122

Give the reported IC50 for this compound. O=C(O)COc1cccc2c1O[C@H]1C[C@@H](O)[C@H](NS(=O)(=O)c3ccc(C(F)(F)F)cc3)[C@@H]21 (racemic) [(65)]
97.2

Answer with reported IC50 of O=C(O)COc1cccc2c1O[C@H]1C[C@@H](O)[C@H](NS(=O)(=O)c3ccc(Br)cc3)[C@@H]21 (racemic) [(61)]
2.06

Write down IC50 measured for item Cc1ccc(S(=O)(=O)N[C@@H]2[C@H]3c4cccc(OCC(=O)O)c4O[C@H]3C[C@H]2O)cc1 (relative stereo) [(49)]
8.82

Annotate the compound COC(=O)COc1cccc2c1O[C@H]1C[C@@H](O)[C@H](NS(=O)(=O)c3ccccc3)[C@@H]21 (racemic) [(46)] with its measured IC50.
23.1

Give the reported IC50 for this compound. O=C(O)COc1cccc2c1O[C@H]1C[C@@H](O)[C@H](NS(=O)(=O)c3ccccc3)[C@@H]21 (racemic) [(47)]
7.4

Provide only the value of recorded IC50 for O=C(O)COc1cccc2c1O[C@H]1C[C@@H](O)[C@H](NS(=O)(=O)c3ccc(I)cc3)[C@@H]21 (racemic) [(63)]
22.6

Identify the reported IC50 for the following entry. O=C(O)COc1cccc2c1O[C@H]1C[C@@H](O)[C@H](NS(=O)(=O)c3ccc(Cl)c(Cl)c3)[C@@H]21 (racemic) [(72)]
25.3

For O=C(O)COc1cccc2c1O[C@H]1CC[C@@H](NS(=O)(=O)c3ccccc3)[C@@H]21 (racemic) [(94)] , write its IC50.
16.7

Identify the reported IC50 for the following entry. CCOC(=O)COc1cccc2c1O[C@H]1C[C@@H](O)[C@H](NS(=O)(=O)c3ccccc3)[C@@H]21 (racemic) [(102)]
415

Query IC50 for O=C(O)COc1cccc2c1O[C@H]1CC[C@H](OS(=O)(=O)c3ccccc3)[C@@H]21 (racemic) [(121)]
1.28

Query IC50 for CCCCCCCCS(=O)(=O)N[C@@H]1[C@H]2c3cccc(OCC(=O)O)c3O[C@H]2C[C@H]1O (racemic) [(84)]
1220

Fill in reported IC50 for this entry: O=C(O)COc1cccc2c1O[C@H]1C[C@@H](O)[C@H](NS(=O)(=O)c3ccc(F)cc3)[C@@H]21 (racemic) [(53)]
21

----------
- Target desc: Thromboxane A2 Receptor (Oryctolagus cuniculus, UniProt Q6WQI8)
- Sequence (Q6WQI8 1-233): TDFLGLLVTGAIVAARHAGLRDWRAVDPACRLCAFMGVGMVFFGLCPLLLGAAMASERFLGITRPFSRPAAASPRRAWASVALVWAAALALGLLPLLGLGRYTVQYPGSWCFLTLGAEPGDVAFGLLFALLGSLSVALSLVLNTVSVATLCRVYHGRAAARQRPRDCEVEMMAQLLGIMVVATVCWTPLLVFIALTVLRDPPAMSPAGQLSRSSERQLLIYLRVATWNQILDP
- Procedure summary: Receptor binding experiment: Thromboxane A2 Receptor Binding Test ([3H]SQ29548, washed platelets)
- Parameters: species or system New Zealand White rabbits
- Condition summary: rabbit washed platelets; [3H]SQ29548 3 nM; 60 minutes at 25° C.; read-out: Binding Inhibitory Action IC50 (converted)
Observed property: IC50 (nM)
Response body: numeric value in nM, unit text excluded.

Provide one value: measured IC50 of O=C(O)COc1cccc2c1O[C@H]1C[C@@H](O)[C@H](NS(=O)(=O)Cc3ccccc3)[C@@H]21 (racemic) [(74)]
858

Provide one value: measured IC50 of O=C(O)COc1cccc2c1O[C@H]1C[C@@H](O)[C@H](NS(=O)(=O)c3ccc(F)cc3F)[C@@H]21 (racemic) [(70)]
49.8

Quick one: give measured IC50 for COC(=O)COc1cccc2c1O[C@H]1C[C@@H](O)[C@H](CNS(=O)(=O)c3ccccc3)[C@@H]21 (racemic) [(96)]
415

The measurements presented in this section are drawn from patent US5496849A.
